# Tested on: Mycobacterium tuberculosis
# Assay Notes: Cornell - Phenotypic assay to identify agents that inhibit growth of Mycobacterium tuberculosis
# Type: functional
# Set-up: scale not given: direction of the effect not stated beside the values
# Condition Description: 10 mM as filed; unlikely as a test dose
In all, about 53,000 compounds went through this assay and about 900 (1.7%) showed an effect of 50% or more. The sample holds strong results, similar compounds and a random draw of the others, so the mix is not that of the screen.
Metric: Percent Effect (%)
Output spec: scalar in %, unitless text.

Ask: What value of measured Percent Effect is listed for CCN(CC)c1nc(Nc2cccc(C(=O)O)c2)nc2ccccc12 ?
Reply: -13.69

Ask: What value of measured Percent Effect is listed for CCN(CC)c1nc(Nc2cccc(C(C)O)c2)nc2ccccc12 (configuration not stated) ?
Reply: 104.6

Ask: What value of measured Percent Effect is listed for OCCn1nnnc1Cc1ccc(Br)cc1 ?
Reply: 32.76

Ask: What value of measured Percent Effect is listed for CC(O)c1cccc(Nc2nc(NCCO)c3ccccc3n2)c1 (configuration not stated) ?
Reply: -13.85

Ask: What value of measured Percent Effect is listed for O=C(O)CN1CCOCC(Cc2ccc(Cl)cc2)C1 (configuration not stated) ?
Reply: -49.54

Ask: What value of measured Percent Effect is listed for Cc1cc(C)n(CCNCc2cc(-c3ccc(Cl)cc3)c[nH]c2=O)n1 ?
Reply: -2.359

Ask: What value of measured Percent Effect is listed for Cc1ccc(NC(=O)c2coc(C)n2)c(C)c1 ?
Reply: 2.34

Ask: What value of measured Percent Effect is listed for Cc1cccc(-c2ccc(C(=O)N3CCN(C(C)C)CC3)c(=O)[nH]2)c1 ?
Reply: 26.41

Ask: What value of measured Percent Effect is listed for N#CCCCn1nnnc1Cc1ccc(Br)cc1 ?
Reply: 19.45

Ask: What value of measured Percent Effect is listed for COc1ccccc1C1(CNc2nnc(C)c(C)c2C#N)CCCC1 ?
Reply: 86.76

Ask: What value of measured Percent Effect is listed for Cl.O=C(NCCn1nc(C2CCNC2)c2cccnc21)c1ccccc1 (configuration not stated) ?
Reply: -53.35

Ask: What value of measured Percent Effect is listed for CC(C)OCCn1nnnc1Cc1ccc(Br)cc1 ?
Reply: 80.17
